Data origin, for the record: ChEMBL document CHEMBL1155699

Test system Cholinesterase (Equus caballus, UniProt P81908), pIC50 listed for each of the compounds.
Interpret pIC50 as the negative base-10 log of the concentration measured in mol/L.

// pIC50 lookup, key: CC(=O)O[C@H]1[C@@H](NC(=O)C=C(C)C)CC[C@]2(C)[C@H]3CC[C@]4(C)C([C@H](C)N(C)C)=CC[C@H]4[C@@H]3CC[C@@H]12 [VAGANINE D]
5.00

# input compound: C/C=C(\C)C(=O)N[C@@H]1[C@H](OC(C)=O)[C@@H]2CC[C@@H]3[C@H](CC[C@]4(C)C([C@H](C)NC)=CC[C@@H]34)[C@@]2(C)C[C@@H]1OC(C)=O [NEPAPAKISTAMINE] ; wanted: its pIC50
4.60

* * *

Let's look at some molecules and their measured IC50.
target: Acetylcholinesterase (Electrophorus electricus)
Sequence (O42275 whole entry): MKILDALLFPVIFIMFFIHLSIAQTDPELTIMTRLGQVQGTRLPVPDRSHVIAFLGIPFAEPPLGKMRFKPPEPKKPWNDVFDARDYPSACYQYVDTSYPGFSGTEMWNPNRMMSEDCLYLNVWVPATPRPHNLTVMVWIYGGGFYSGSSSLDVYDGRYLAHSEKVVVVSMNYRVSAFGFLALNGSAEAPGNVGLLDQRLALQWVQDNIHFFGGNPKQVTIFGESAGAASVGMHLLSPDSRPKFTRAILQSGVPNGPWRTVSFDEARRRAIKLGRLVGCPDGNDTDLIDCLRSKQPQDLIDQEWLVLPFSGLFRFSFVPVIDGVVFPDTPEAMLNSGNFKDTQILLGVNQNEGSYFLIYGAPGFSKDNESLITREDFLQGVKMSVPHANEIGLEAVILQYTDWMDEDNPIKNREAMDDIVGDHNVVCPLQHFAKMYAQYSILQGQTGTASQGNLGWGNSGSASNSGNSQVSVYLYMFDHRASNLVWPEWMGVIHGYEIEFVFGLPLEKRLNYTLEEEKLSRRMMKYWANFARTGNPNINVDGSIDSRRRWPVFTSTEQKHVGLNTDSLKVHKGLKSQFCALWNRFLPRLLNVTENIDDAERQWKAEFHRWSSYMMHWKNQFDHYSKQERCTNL
Your answer should be a plain number; it is taken to be in µM.

C/C=C(\C)C(=O)N[C@@H]1[C@H](OC(C)=O)[C@@H]2CC[C@@H]3[C@H](CC[C@]4(C)C([C@H](C)NC)=CC[C@@H]34)[C@@]2(C)C[C@@H]1OC(C)=O [NEPAPAKISTAMINE]	50.1

Here is another molecule to look at.
Entry CC(=O)O[C@H]1[C@@H](NC(=O)C=C(C)C)CC[C@]2(C)[C@H]3CC[C@]4(C)C([C@H](C)N(C)C)=CC[C@H]4[C@@H]3CC[C@@H]12 [VAGANINE D] , system Acetylcholinesterase (Electrophorus electricus): what IC50 was measured?
46.9
